- Test system: ATP;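 also: ATP exposure 15 min at 22 °C before imaging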
- Procedure summary: switch fluorescence ratio, 500 uM ATP over buffer (Cy3 cluster intensity, sum of 5 cycles each) (fold (ratio)); higher = stronger signal-on switching upon ATP binding; sequences stand for … in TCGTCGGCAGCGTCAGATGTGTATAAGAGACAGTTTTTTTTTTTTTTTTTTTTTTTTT…TC
- Study conditions: aptamer strand: ATP DNA aptamer (quencher-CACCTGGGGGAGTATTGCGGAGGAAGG + anchor), 100 nM annealed; ATP concentration: 500 uM
Would you mind telling me the reported switch fluorescence ratio of each entry?
Give bare numbers.

In the examples that follow, each entry is paired with its recorded switch fluorescence ratio.
Memo: TTCCACTTGA , reported switch fluorescence ratio: 1.04

Memo: CGGGAGAACT , reported switch fluorescence ratio: 0.987

Memo: TATGGAGTTG , reported switch fluorescence ratio: 0.992

Memo: CCGGGGAACG , reported switch fluorescence ratio: 1.08

Memo: CCAGTAGACT , reported switch fluorescence ratio: 1.06

Memo: TTAAGAATTC , reported switch fluorescence ratio: 0.954

Give switch fluorescence ratio for each listed item.
1. GTGTGTTTTT
2. TCCAGAGCGG
3. CTTAGCGGGG
4. CAAATTTTTT

[0.975, 1.34, 0.983, 1.01]

Give switch fluorescence ratio for each listed item.
1. TTTAAAAAAG
2. TCGGGGGAAG
3. GTTGGGAAGT
4. GAAGTTTCTA
5. GGTAGTTTTC
6. GGGAGATTAA
7. AGGGGTAGGT
8. AGGAAGACAA

1: 1.02; 2: 1.01; 3: 0.994; 4: 0.999; 5: 0.992; 6: 0.975; 7: 0.982; 8: 1.03

Memo: GGGTTAATCT , reported switch fluorescence ratio: 0.998

* * *

- Test system: ATP;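 also: ATP exposure 15 min at 22 °C before imaging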
- Procedure summary: switch fluorescence ratio, 500 uM ATP over buffer (Cy3 cluster intensity, sum of 5 cycles each) (fold (ratio)); higher = stronger signal-on switching upon ATP binding; sequences stand for … in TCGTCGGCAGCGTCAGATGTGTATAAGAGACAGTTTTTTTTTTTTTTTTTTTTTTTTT…TC
- Study conditions: aptamer strand: ATP DNA aptamer (quencher-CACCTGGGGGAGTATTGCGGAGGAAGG + anchor), 100 nM annealed; ATP concentration: 500 uM
Would you mind telling me the reported switch fluorescence ratio of each entry?
Answers are plain numbers.

ATP switch fluorescence ratio of AGGGAGCTGT is 1.02

ATP switch fluorescence ratio of AAAATTTAGC is 0.964

ATP switch fluorescence ratio of AAAGAGCTAG is 1

ATP switch fluorescence ratio of TGGTTGCCTG is 0.993

ATP switch fluorescence ratio of TCGCTGTAGG is 1.1

Give switch fluorescence ratio for each listed item.
1. GGGAGTTGG
2. AAAAAGTCTT
3. TCGTGATGTA
4. GTGTGATCCG

[0.992, 1, 0.974, 1.01]

Give switch fluorescence ratio for each listed item.
1. CGTGGCAAAG
2. TAAAAGGCAT
3. ATCAGACGGG
4. GCAAAAATGG
5. GGAGAGGGTC
6. TTTAAAAGAT

[1.02, 1.03, 1, 1.02, 1.05, 1.01]

Give switch fluorescence ratio for each listed item.
1. TCAAAGTACC
2. AGCTACCTTC
3. CCAAACAGGA
4. TTTCATACCT

1. 1.16
2. 1.42
3. 1.01
4. 1.23

ATP switch fluorescence ratio of GGGATAGGGG is 0.996

* * *

- Tested on: ATP;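 also: ATP exposure 15 min at 22 °C before imaging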
- Procedure summary: switch fluorescence ratio, 500 uM ATP over buffer (Cy3 cluster intensity, sum of 5 cycles each) (fold (ratio)); higher = stronger signal-on switching upon ATP binding; sequences stand for … in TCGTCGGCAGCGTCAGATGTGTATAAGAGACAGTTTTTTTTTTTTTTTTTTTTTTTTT…TC
- Study conditions: aptamer strand: ATP DNA aptamer (quencher-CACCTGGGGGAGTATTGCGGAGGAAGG + anchor), 100 nM annealed; ATP concentration: 500 uM
Quantity: switch fluorescence ratio
Give bare numbers.

In the examples that follow, each entry is paired with its recorded switch fluorescence ratio.
Memo: GCGTTTTTCA , reported switch fluorescence ratio: 0.98

Memo: AAGATCTCTA , reported switch fluorescence ratio: 1.01

Memo: TTCAGTTAAT , reported switch fluorescence ratio: 1

Memo: TAGGCAGGGT , reported switch fluorescence ratio: 1.56

# next sequence below
Memo: TTTTAAATGT , reported switch fluorescence ratio: 1.04

* * *

- Tested on: ATP;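 also: ATP exposure 15 min at 22 °C before imaging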
- Procedure summary: switch fluorescence ratio, 500 uM ATP over buffer (Cy3 cluster intensity, sum of 5 cycles each) (fold (ratio)); higher = stronger signal-on switching upon ATP binding; sequences stand for … in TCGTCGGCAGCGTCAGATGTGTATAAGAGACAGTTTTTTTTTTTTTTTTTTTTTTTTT…TC
- Study conditions: aptamer strand: ATP DNA aptamer (quencher-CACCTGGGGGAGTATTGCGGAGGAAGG + anchor), 100 nM annealed; ATP concentration: 500 uM
Quantity: switch fluorescence ratio
Answers are plain numbers.

In the examples that follow, each entry is paired with its recorded switch fluorescence ratio.
Memo: GCACGTGCGT , reported switch fluorescence ratio: 1.02

Memo: TCGGAGGAAA , reported switch fluorescence ratio: 0.999

Memo: AGTTGGAAAA , reported switch fluorescence ratio: 0.997

Give switch fluorescence ratio for each listed item.
1. TTGACTTTAA
2. GTTAGAGGGG

[1, 1.01]

* * *

- Test system: ATP;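 also: ATP exposure 15 min at 22 °C before imaging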
- Procedure summary: switch fluorescence ratio, 500 uM ATP over buffer (Cy3 cluster intensity, sum of 5 cycles each) (fold (ratio)); higher = stronger signal-on switching upon ATP binding; sequences stand for … in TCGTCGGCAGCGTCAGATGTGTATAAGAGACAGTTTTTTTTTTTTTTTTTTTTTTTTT…TC
- Study conditions: aptamer strand: ATP DNA aptamer (quencher-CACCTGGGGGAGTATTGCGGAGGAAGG + anchor), 100 nM annealed; ATP concentration: 500 uM
Would you mind telling me the reported switch fluorescence ratio of each entry?
Answers are plain numbers.

In the examples that follow, each entry is paired with its recorded switch fluorescence ratio.
Memo: TTTTTCCTAT , reported switch fluorescence ratio: 1.01

Memo: TGGGTGAAGG , reported switch fluorescence ratio: 0.999

Memo: GTTGTTGTGG , reported switch fluorescence ratio: 1.02

Memo: TTACTAGGCG , reported switch fluorescence ratio: 1.01

# next sequence below
Memo: TTGACGGGGA , reported switch fluorescence ratio: 1.12

* * *

Would you mind telling me the reported switch fluorescence ratio of each entry?
- System: ATP;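 also: ATP exposure 15 min at 22 °C before imaging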
- Procedure summary: switch fluorescence ratio, 500 uM ATP over buffer (Cy3 cluster intensity, sum of 5 cycles each) (fold (ratio)); higher = stronger signal-on switching upon ATP binding; sequences stand for … in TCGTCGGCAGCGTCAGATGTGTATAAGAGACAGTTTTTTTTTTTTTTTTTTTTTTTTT…TC
- Study conditions: aptamer strand: ATP DNA aptamer (quencher-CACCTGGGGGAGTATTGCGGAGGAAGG + anchor), 100 nM annealed; ATP concentration: 500 uM

In the examples that follow, each entry is paired with its recorded switch fluorescence ratio.
Memo: GGGGGTTAGA , reported switch fluorescence ratio: 1

Memo: TAGTTTGTTT , reported switch fluorescence ratio: 1.02

***
Memo: AAGCGAGGGC , reported switch fluorescence ratio: 1.06

* * *

- Test system: ATP;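 also: ATP exposure 15 min at 22 °C before imaging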
- Procedure summary: switch fluorescence ratio, 500 uM ATP over buffer (Cy3 cluster intensity, sum of 5 cycles each) (fold (ratio)); higher = stronger signal-on switching upon ATP binding; sequences stand for … in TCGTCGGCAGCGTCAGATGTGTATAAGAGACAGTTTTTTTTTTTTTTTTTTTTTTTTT…TC
- Study conditions: aptamer strand: ATP DNA aptamer (quencher-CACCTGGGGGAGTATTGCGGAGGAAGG + anchor), 100 nM annealed; ATP concentration: 500 uM
Quantity: switch fluorescence ratio

In the examples that follow, each entry is paired with its recorded switch fluorescence ratio.
Memo: ATGGCCTTAA , reported switch fluorescence ratio: 0.982

Memo: TGTTGGTTGC , reported switch fluorescence ratio: 0.988

Memo: ATCGCGTCGT , reported switch fluorescence ratio: 0.995

Memo: AGGTGGGGG , reported switch fluorescence ratio: 0.979

Memo: AAGCTCGTTG , reported switch fluorescence ratio: 1.01

Give switch fluorescence ratio for each listed item.
1. AAGGAGGTCA
2. TACAATTTTT
3. TTGGGTCCGA
4. AGGAAAGTAG
5. TTGCTAGCCT
6. CTCATTTGGT
7. AAGGGGAGGG

1. 0.977
2. 1.01
3. 1.01
4. 0.972
5. 1.01
6. 0.989
7. 1

Give switch fluorescence ratio for each listed item.
1. ATTATTATGT
2. TCTGGGCCTT

1: 0.978; 2: 0.999

Give switch fluorescence ratio for each listed item.
1. TATGGAGACC
2. TAGTGTTGGG
3. CAATTTCGGT
4. GGCAGGGGTT
5. GGGGTCGGTT
6. ATAGATGTTG

1: 0.992; 2: 0.984; 3: 0.996; 4: 1; 5: 1.01; 6: 0.981

Give switch fluorescence ratio for each listed item.
1. TGAGTTCTTG
2. CATTTTGTCT
3. TATGGAGAGC
4. TTTATTTATT

0.982
1.02
1.02
0.998

Give switch fluorescence ratio for each listed item.
1. TAACTTTTTT
2. ATGGAGGCGC

1. 1.02
2. 0.981
